# IC50 annotations
biological target: basic fibroblast growth factor (bFGF, FGF-2) (UniProt P09038 P09038:135-288); test: inhibition; 125I-bFGF binding to high-affinity receptor, BHK cells, 4 C; details: tags: Bachem California; 18 kDa, 154 amino acids; label: 125I
Sequence (P09038 135-288, one chain of several): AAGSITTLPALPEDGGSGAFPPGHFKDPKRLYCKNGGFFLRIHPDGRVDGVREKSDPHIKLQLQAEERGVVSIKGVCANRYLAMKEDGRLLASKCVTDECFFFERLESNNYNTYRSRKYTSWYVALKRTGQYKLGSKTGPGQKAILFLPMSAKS
RESULT_TYPE: IC50

> print(dat)
                                     binder  experimental.result
1  5A (ssRNA) RNA: GGGAGCUCAGAAUAAACGCUCAAAUCUCCUCCCGUCGAAGCUAACCUGGCCACUUCGACAUGAGGCCCGGAUCCGGC             ~1000 nM
2  26A (ssRNA) RNA: GGGAGCUCAGAAUAAACGCUCAACGUCAGAAGGCAACGUAUAGGCAAGCACACUUCGACAUGAGGCCCGGAUCCGGC             ~1000 nM
3  12A (ssRNA) RNA: GGGAGCUCAGAAUAAACGCUCAAGGGGCAACGCUACAGACAAGUGCACCCAACUUCGACAUGAGGCCCGGAUCCGGC            > 1000 nM
4  7A (ssRNA) RNA: GGGAGCUCAGAAUAAACGCUCAAUCGGCGAGCUAACCAAGACACUCGCUGCACUUCGACAUGAGGCCCGGAUCCGGC             ~1000 nM
